% inhibition apPOL 180' 80 values, listed per item
Molecular target: P. falciparum apicoplast DNA polymerase (Pf-apPOL) (Plasmodium falciparum)
Sequence (Q8ILY1 entry or part of it): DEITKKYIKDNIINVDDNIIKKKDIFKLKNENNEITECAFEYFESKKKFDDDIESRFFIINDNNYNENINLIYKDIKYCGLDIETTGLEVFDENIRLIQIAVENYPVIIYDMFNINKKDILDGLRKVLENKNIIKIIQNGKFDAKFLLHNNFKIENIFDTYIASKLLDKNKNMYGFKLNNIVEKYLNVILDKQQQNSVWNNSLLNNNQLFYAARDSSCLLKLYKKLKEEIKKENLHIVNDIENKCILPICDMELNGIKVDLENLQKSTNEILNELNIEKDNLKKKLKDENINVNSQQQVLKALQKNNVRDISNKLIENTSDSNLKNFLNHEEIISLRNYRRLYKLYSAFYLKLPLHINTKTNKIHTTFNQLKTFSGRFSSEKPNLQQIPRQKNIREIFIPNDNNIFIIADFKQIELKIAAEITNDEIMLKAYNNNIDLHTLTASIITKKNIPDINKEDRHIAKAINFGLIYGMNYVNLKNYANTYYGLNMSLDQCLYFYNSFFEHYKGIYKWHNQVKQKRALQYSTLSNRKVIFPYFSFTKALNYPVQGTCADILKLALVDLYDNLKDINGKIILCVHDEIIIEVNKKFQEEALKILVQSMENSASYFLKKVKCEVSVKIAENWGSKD
Assay: Fluorescence-based high-throughput DNA polymerase assay (molecular beacon), primary screen and dose-response
Format: biochemical
Conditions: DRC-2; read at 180'; concentration 80
property-measured: % inhibition apPOL 180' 80 (%)

{"compound": "CCCc1ccc(Oc2coc3cc(OC)ccc3c2=O)cc1", "assay-result": 52}
{"compound": "Cc1ccsc1Cn1c(C)ccc1C", "assay-result": 62}
{"compound": "COc1ccc(C2CC(c3ccc(Cl)cc3Cl)Nc3nc(N)nn32)cc1OC (stereo not drawn)", "assay-result": 46}
{"compound": "O=C(CCc1csc(NC(=O)Nc2ccccc2)n1)Nc1nc2ccccc2s1", "assay-result": 46}
{"compound": "C#CC(C=CC)OC(=O)c1ccccc1C(=O)O (stereo not drawn)", "assay-result": 69}
{"compound": "COc1ccccc1CC(=O)N1CCc2c(nc3cc(-c4ccccc4Cl)[nH]n3c2=O)C1", "assay-result": 52}
{"compound": "CC(=O)Nc1cc(C(=O)c2cccs2)nn(-c2ccc(Cl)cc2)c1=O", "assay-result": 52}
{"compound": "N#Cc1c(O)nc(N2CCCCC2)nc1-c1ccc2c(c1)OCO2", "assay-result": 61}
{"compound": "Cn1nc(-c2nnc(-c3ccccc3F)o2)c2c1CCN(C(=O)c1ccccc1Cl)C2", "assay-result": 52}
